# Test system: giant foxtail
# Experiment Summary: Test B preemergence/postemergence greenhouse plant response rating 0 to 10
# Type: in vivo, Setaria faberii
# Particulars: POSTEMERGENCE, Rate 10 g/ha; 0 to 10 scale
Property: Plant response rating, Giant foxtail
Form field (numeric): enter value without unit.

Use the examples below as a reference point.
1) COCCN1C(=O)COc2cc(F)c(-c3nn4c(c3Cl)CCCC4)cc21 | 3
2) C#CCOC(=O)COc1cc(-c2nn3c(c2Cl)CCCC3)c(F)cc1Cl | 2
3) COCN1C(=O)COc2cc(F)c(-c3nn4c(c3Cl)CCCC4)cc21 | 4
4) C#CC(C)N1C(=O)COc2cc(F)c(-c3nn4c(c3Cl)CCCC4)cc21 (centres unmarked) | 4

Please find the next compound below.
Reported Plant response rating, Giant foxtail for CCCN1C(=O)COc2cc(F)c(-c3nn4c(c3Br)CCCC4)cc21 was 3
